test: xn = mol fraction of the nth substance listed
conditionDetails: 308.15 K; 103 kPa; x1 = 0.35
resultType: viscosity (mPa·s)
Give bare numbers, in mPa·s.

Parameter requested: viscosity. Apply to each item below.
1. C[Si]1(C)O[Si](C)(C)O[Si](C)(C)O[Si](C)(C)O1 + CCCCCCCCCCCC
2. C[Si]1(C)O[Si](C)(C)O[Si](C)(C)O[Si](C)(C)O1 + CCCCCCCCCCCCC
3. C[Si]1(C)O[Si](C)(C)O[Si](C)(C)O[Si](C)(C)O1 + CCCCCCCCCC
4. C[Si]1(C)O[Si](C)(C)O[Si](C)(C)O[Si](C)(C)O1 + CCCCCCCCCCCCCC

1.183
1.345
0.895
1.52

src = the CheMixHub viscosity set
